# Tested on: platelet aggregation induced by collagen (Col) in washed rabbit platelets
# assay: Inhibition of collagen-induced aggregation of washed rabbit platelets (turbidimetry, Lumi-aggregometer)
# Format: cell-based
# cond: Oryctolagus cuniculus, Col 10 μg/ml
Listing of recorded IC50 by entry.

Req: Give the measured IC50 of C=C1CC(C)(COc2cccc3ccc(C)nc23)OC1=O (stereo not drawn) [Compound 10] .
Resp: 16.2 µg/mL

Req: Returns the measured IC50 for the input compound. Input: C=C1CC(COc2cccc3cccnc23)(c2ccc(Cl)cc2)OC1=O (stereo not drawn) [Compound 9]
Resp: 5.17 µg/mL

Req: Endpoint output: IC50 of C=C1CC(C)(COc2cc(=O)oc3ccccc23)OC1=O (stereo not drawn) [Compound 1] . Value?
Resp: > 50 µg/mL

Req: Recorded IC50 of C=C1CC(COc2cccc3ccc(C)nc23)(c2ccccc2)OC1=O (stereo not drawn) [Compound 11] , please.
Resp: 5.76 µg/mL

Req: What does the record list as IC50 for C=C1CC(C)(COc2cccc3cccnc23)OC1=O (stereo not drawn) [Compound 7] ?
Resp: 27.2 µg/mL

Continuing:
Req: What value of IC50 has been reported for the following compound? C=C1CC(COc2cccc3cccnc23)(c2ccccc2)OC1=O (stereo not drawn) [Compound 8]
Resp: 4.76 µg/mL

====

Measured IC50 by item
# Tested on: platelet aggregation induced by platelet-activating factor (PAF) in washed rabbit platelets
# assay: Inhibition of PAF-induced aggregation of washed rabbit platelets (turbidimetry, Lumi-aggregometer)
# Format: cell-based
# cond: Oryctolagus cuniculus, PAF 2 nM
Give a bare numeral; the unit µg/mL is implied.

// known answers, use as guide
Req: Query (compound): C=C1CC(C)(COc2cccc3ccc(C)nc23)OC1=O (centres unmarked) ; field requested: IC50
Resp: 39.6

Req: Form field: reported IC50 of C=C1CC(COc2cc(=O)oc3ccccc23)(c2ccccc2)OC1=O (centres unmarked)
Resp: 36

Req: What value of IC50 has been recorded for this entry: C=C1CC(COc2cccc3cccnc23)(c2ccc(Cl)cc2)OC1=O (centres unmarked)
Resp: 12.4

--- query ---
Req: Tell me the measured IC50 of C=C1CC(COc2cccc3ccc(C)nc23)(c2ccc(Cl)cc2)OC1=O (centres unmarked) , please.
Resp: 10.8

====

# Test system: platelet aggregation induced by platelet-activating factor (PAF) in washed rabbit platelets
# assay: Inhibition of PAF-induced aggregation of washed rabbit platelets (turbidimetry, Lumi-aggregometer)
# Format: cell-based
# cond: Oryctolagus cuniculus, PAF 2 nM
readoutName: IC50

# annotated cases, reported IC50 shown
Req: What value of IC50 has been reported for the following compound? C=C1CC(COc2ccc3ccc(=O)oc3c2)(c2ccccc2)OC1=O (stereo not drawn)
Resp: 5.7 µg/mL

Req: Look up IC50: C=C1CC(COc2cccc3cccnc23)(c2ccccc2)OC1=O (stereo not drawn)
Resp: 11.1 µg/mL

Req: What measured IC50 goes with C=C1CC(COc2cccc3ccc(C)nc23)(c2ccccc2)OC1=O (stereo not drawn) ?
Resp: 10.5 µg/mL

Req: For C=C1CC(C)(COc2cccc3cccnc23)OC1=O (stereo not drawn) , what is its reported IC50?
Resp: 47.9 µg/mL

Req: Give the measured IC50 of C=C1CC(C)(COc2ccc3ccc(=O)oc3c2)OC1=O (stereo not drawn) .
Resp: > 50 µg/mL

From here, focus on the item given below.
Req: Fill in the blank: the reported IC50 of C=C1CC(COc2cccc3ccc(=O)[nH]c23)(c2ccccc2)OC1=O (stereo not drawn) is ____.
Resp: > 50 µg/mL

Entry source: patent US5646164A
